Record: compiled pIC50 on Epidermal growth factor receptor (Homo sapiens, UniProt P00533) from multiple reports.
pIC50: −log10 of the molar value.

// worked examples, pIC50 included
compound	measureName	recordedResult
C=CC(=O)Nc1cccc(Nc2nc(Nc3ccc(NC4CN(C(C)=O)C4)cc3OC)ncc2C(F)(F)F)c1	pIC50	8.00 to 9.00
Cc1ccc(Oc2ccc(Nc3ncnc4sc5c(c34)CCN(C(=O)/C=C/CN3CC4(CCCC4)C3)C5)cc2C)cn1	pIC50	< 5.00
CC(C)c1nc(-c2ccnc(NS(=O)(=O)c3c(F)cccc3F)c2)c(-c2ccnc(Nc3ccc(N4CCN(CCF)CC4)c(F)c3)n2)s1	pIC50	< 6.00
CC(=O)Cn1nc(C)c2c1OCCCOc1c(cnn1C)-c1ccc3[nH]nc(c3c1)/C=C/2	pIC50	6.03
C=CC(=O)Nc1cccc(N2C(=O)N(C)Cc3cnc(Nc4ccc(N5CCN(C)CC5)cc4F)nc32)c1	pIC50	5.00 to 6.00
C=CC(=O)Nc1cc(CN2CCN(C)CC2)cc(Nc2ncc(Cl)c(Nc3ccc4ccccc4c3)n2)c1	pIC50	6.99
C=CC(=O)Nc1cc(-c2c(-c3cnc(N4CCN(C)CC4)nc3)[nH]c3nccc(Cl)c23)ccc1C	pIC50	≥ 7.00
Oc1ccc(/C=C/c2cc(-c3cc4ccccc4s3)n[nH]2)cc1	pIC50	< 5.30
COc1cc(Nc2ncc(Br)c(Nc3ccc4nc(C5CC5)ccc4c3P(C)(C)=O)n2)c(C)cc1N1CCN(C2CCCC2)CC1	pIC50	7.47
CCc1nn(CCO)c2c1/C=C/c1n[nH]c3ccc(cc13)-c1cnn(C)c1O[C@@H](C)CN(C)C2	pIC50	8.52

Known value: Epidermal growth factor receptor (Homo sapiens, UniProt P00533) pIC50 of the compound `COc1cc(N2C[C@@H]3C[C@H]2CN3C)ccc1Nc1nc(Nc2cccc3c2N(S(C)(=O)=O)CC3)c2cc[nH]c2n1` equals 6.24

Known value: Epidermal growth factor receptor (Homo sapiens, UniProt P00533) pIC50 of the compound `Cc1cc(Nc2ncnc3sc4c(c23)CCN(C(=O)/C=C/CN2CCOC[C@@H]2C)C4)ccc1Oc1ccc2ncnn2c1` equals < 5.00

Known value: Epidermal growth factor receptor (Homo sapiens, UniProt P00533) pIC50 of the compound `C=CC(=O)Nc1cccc(Oc2nc(Nc3ccc(N4CCN(C(C)=O)CC4)cc3OC)ncc2Cl)c1` equals 8.00 to 9.00

Known value: Epidermal growth factor receptor (Homo sapiens, UniProt P00533) pIC50 of the compound `COc1ccc(NC(=O)/C=C/CN(C)C)cc1Nc1ncc(C)c(Nc2ccc3ccccc3c2)n1` equals 6.63

Known value: Epidermal growth factor receptor (Homo sapiens, UniProt P00533) pIC50 of the compound C=CC(=O)Nc1cccc(Oc2nc(Nc3ccc(C4CCCN(C)C4)cc3OC)nc3ccsc23)c1 (centres unmarked) equals < 6.00
